Quick reference for NanoBRET Abs IC50 among some binders
- systemUnderTest: T1, B-cat-Halo (beta-catenin HaloTag NanoBRET construct expressed in HEK293 cells) (UniProt P35222 1-781)
- T1 sequence (looked up): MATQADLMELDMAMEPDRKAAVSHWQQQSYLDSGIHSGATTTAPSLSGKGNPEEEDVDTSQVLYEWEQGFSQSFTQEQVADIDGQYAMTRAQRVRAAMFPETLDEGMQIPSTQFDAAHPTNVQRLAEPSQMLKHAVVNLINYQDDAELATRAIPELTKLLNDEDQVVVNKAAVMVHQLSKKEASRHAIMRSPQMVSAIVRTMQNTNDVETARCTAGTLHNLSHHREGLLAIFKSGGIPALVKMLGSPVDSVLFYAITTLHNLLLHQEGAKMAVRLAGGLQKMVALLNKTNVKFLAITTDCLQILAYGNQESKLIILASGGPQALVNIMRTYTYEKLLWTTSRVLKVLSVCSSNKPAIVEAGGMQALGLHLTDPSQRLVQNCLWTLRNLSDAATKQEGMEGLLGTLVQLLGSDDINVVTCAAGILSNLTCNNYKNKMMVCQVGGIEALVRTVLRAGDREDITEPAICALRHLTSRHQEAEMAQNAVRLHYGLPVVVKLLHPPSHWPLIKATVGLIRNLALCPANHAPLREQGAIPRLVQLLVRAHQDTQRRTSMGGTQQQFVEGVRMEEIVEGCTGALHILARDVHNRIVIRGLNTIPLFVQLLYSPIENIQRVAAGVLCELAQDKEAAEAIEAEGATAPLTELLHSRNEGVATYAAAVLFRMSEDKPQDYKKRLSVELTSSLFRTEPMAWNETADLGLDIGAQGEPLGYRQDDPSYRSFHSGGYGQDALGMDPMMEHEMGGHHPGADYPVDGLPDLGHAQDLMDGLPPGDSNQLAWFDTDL
- assayRemarks: cell-based or functional assay
Starred links: 1 amine or outer side, 2 acyl side, 3 side chain; linkers in the order of their positions; H or OH if unused. Positions of bridges follow the written chain, without caps; N, C: chain ends. Non-standard residues stand in square brackets, D forms with d. Primed or numbered codes have the meaning given here. *: point of attachment. PyrS2″ = (S)-3-amino-1-((pent-4-en-1-yloxy)carbonyl)pyrrolidine-3-carboxylic acid (stapling residue), C=CCCCOC(=O)N1CC[C@@](N[*:1])(C(=O)[*:2])C1; MeBipipAc = 1'-methyl-[1,4'-bipiperidine]-4-carbonyl on Lys side chain, CN1CCC(N2CCC(C(=O)*)CC2)CC1; B5(3) = 2,2-bis(4-pentenyl)glycine (stitching residue), C=CCCCC(CCCC=C)(N[*:1])C(=O)[*:2]; Propanoyl(3-(1-naphthyl)) = O=C(CCc1cccc2ccccc12)*; Bta = N[C@@H](Cc1csc2ccccc12)C(=O)O; αAllylPro = C=CC[C@@]1(C(=O)O)CCCN1; tBuAla = CC(C)(C)C[C@H](N)C(=O)O; 3Thi = N[C@@H](Cc1ccsc1)C(=O)O
Report only the number, with the unit µM understood.

Ac-[αAllylPro]D[tBuAla][B5(3)]DDAAFN[PyrS2″][3Thi][Bta]QK(Propanoyl(3-(1-naphthyl)))-NH2 (staple 1-4, 4-11) [I-903] : 7.8

Continue with the binder presented below.
So what's the measured NanoBRET Abs IC50 for this one? Ac-[αAllylPro]D[tBuAla][B5(3)]DDAAFN[PyrS2″][3Thi][Bta]QK(MeBipipAc)-NH2 (staple 1-4, 4-11) [I-907]
27.8
